# Tested on: SK-MEL-2 melanoma
# test-description: NCI tumour cell line growth inhibition, 48 h
Consider the following molecules; for each one, report its TGI.

Fill in the blank: the reported TGI of `c1cc2nnc1SCCSCCSc1ccc(nn1)SCCSCCS2` is ____.
> 100 µM

Which TGI is listed for `COc1cc(-n2cc(-c3ccc(Cl)c(Cl)c3)nc2SCc2ccccc2)cc(OC)c1OC` ?
> 100 µM

Form field: reported TGI of `N#C/C(=C\NC(=S)Nc1ccc(S(=O)(=O)Nc2ccccn2)cc1)C(N)=O`
> 100 µM

Which measured TGI value corresponds to `CCOC(=O)c1sc2nc(SC)nc3c2c1N=CN3c1ccc(Br)cc1` ?
> 100 µM

Consider the molecule COc1ccc(-c2nn(-c3cccc(Cl)c3)cc2C2CC(c3ccccc3)=NN2C(C)=O)cc1 (stereo not given) and give its measured TGI.
22.6 µM

I need TGI for every entry listed below, if you could help.
1. CC(C)(C)c1cc(O)c(O)c(C(C)(C)C)c1
2. O=[N+]([O-])[C@@H]1C2C=CC(C2)[C@H]1Cl (stereo not given in full)
3. CCCCCCCCCCCCC(=O)OC(c1cnco1)c1nc(C(O)CC(O)C(O)C(C)O)co1 (stereo not given)

1: 11.4 µM; 2: > 100 µM; 3: > 66 µM

# map each molecule to its TGI
1. COc1ncc(C=C(C#N)C#N)c(OC)n1
2. Cc1cc2c(c(C(=O)NCCC(=O)O)c1)Oc1c(cc(C)cc1C(=O)NCCC(=O)O)S2

["> 100 µM", "> 100 µM"]

====

Please provide measured TGI for the entries that follow.
# Test system: NCI-H460 lung
# test-description: NCI tumour cell line growth inhibition, 48 h
One number for each entry, in µM.

Below, 3 compounds whose answers are already recorded.
# lookup: TGI of `C=CC(=O)N[C@H]1C=C(C)c2c(-c3cnc4ccccc4c3)c3c(N)ncnc3n2C1`
72.8

Name the reported TGI value associated with the compound `Cc1cc2nc3c4cc(Cl)ccc4n(CCN(C)C)c3nc2cc1C`
2.85

Returns the measured TGI for the input compound. Input: COc1ccc(N2C(=O)C3c4[nH]c5ccc([N+](=O)[O-])cc5c4C4CCC(C(C)(C)C)CC4C3C2=O)cc1 (stereo not drawn)
63.9

Attention now shifts to the item below.
TGI for `Cc1nn(-c2ccc(F)cc2)c2ncnc(Nc3ccc(NC(=O)Nc4ccc(Cl)c(C(F)(F)F)c4)cc3)c12` ?
6.01

====

# System: SW-620 colon
# test-description: NCI tumour cell line growth inhibition, 48 h
observable: TGI

As a guide, the following entries are already answered.
TGI lookup needed for `C=CC(=O)c1ccc2c(c1)OCCOCCOCCOCCOCCO2` , thanks.
35.2 µM

Returns the measured TGI for the input compound. Input: `CSc1nc(SC)c2c(CN=[N+]=[N-])c(Br)n(Cc3ccccc3)c2n1`
> 100 µM

// lookup TGI for `CCCCCCCCCCCCCC(=S)NCCCC[C@H](NC(=O)OCc1ccccc1)C(=O)Nc1ccccc1`
> 100 µM

Request the reported TGI associated with O=C(O)c1ccc(NC(c2ccccc2)c2ccc3cccnc3c2O)cc1 (stereo unspecified)
> 55.8 µM

// returns reported TGI for input `N#Cc1c(N)[nH]c(=S)c(C#N)c1-c1cccc(Cl)c1`
> 100 µM

Each compound below has a recorded value; state its TGI.
1. c1ccc([P+](CCNCCNCC[P+](c2ccccc2)(c2ccccc2)c2ccccc2)(c2ccccc2)c2ccccc2)cc1
2. COc1ccc(-c2nn(-c3cccc(Cl)c3)cc2C2CC(c3ccccc3)=NN2C(C)=O)cc1 (stereo unspecified)

["> 100 µM", "> 100 µM"]

Sourced from PubChem BioAssay (NCI)
